Notes on pIC50 obtained with Cytochrome P450 3A4 (Homo sapiens).
Sequence (P08684 whole entry): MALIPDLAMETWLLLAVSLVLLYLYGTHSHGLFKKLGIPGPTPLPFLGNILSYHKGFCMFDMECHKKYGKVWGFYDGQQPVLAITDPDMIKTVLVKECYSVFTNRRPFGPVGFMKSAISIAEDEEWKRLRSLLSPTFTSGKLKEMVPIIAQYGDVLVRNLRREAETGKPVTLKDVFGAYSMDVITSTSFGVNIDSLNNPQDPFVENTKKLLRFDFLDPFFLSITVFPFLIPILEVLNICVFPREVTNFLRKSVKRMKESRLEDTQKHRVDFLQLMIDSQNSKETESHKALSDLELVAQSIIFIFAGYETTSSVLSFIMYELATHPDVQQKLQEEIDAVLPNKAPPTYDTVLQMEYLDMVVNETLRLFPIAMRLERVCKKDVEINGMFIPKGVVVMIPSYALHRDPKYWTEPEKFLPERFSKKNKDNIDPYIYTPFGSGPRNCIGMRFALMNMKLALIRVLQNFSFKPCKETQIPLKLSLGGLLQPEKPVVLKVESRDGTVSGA
pIC50: −log10 of the molar value.

{"smilesData": "COc1cc(C(=O)NS(C)(=O)=O)c(F)cc1-c1cnc(Oc2cc(F)ccc2F)c(Cl)c1", "testedSystem": "Cytochrome P450 3A4 (Homo sapiens)", "pIC50": "< 4.30"}

Give its pIC50 value. Item: CC(C)COc1ncc(-c2cc(F)c(C(=O)NS(C)(=O)=O)cc2F)cc1Cl < 4.30

---

testedSystem: Sodium channel protein type 9 subunit alpha (Homo sapiens, UniProt Q15858)
Sequence (Q15858 whole entry): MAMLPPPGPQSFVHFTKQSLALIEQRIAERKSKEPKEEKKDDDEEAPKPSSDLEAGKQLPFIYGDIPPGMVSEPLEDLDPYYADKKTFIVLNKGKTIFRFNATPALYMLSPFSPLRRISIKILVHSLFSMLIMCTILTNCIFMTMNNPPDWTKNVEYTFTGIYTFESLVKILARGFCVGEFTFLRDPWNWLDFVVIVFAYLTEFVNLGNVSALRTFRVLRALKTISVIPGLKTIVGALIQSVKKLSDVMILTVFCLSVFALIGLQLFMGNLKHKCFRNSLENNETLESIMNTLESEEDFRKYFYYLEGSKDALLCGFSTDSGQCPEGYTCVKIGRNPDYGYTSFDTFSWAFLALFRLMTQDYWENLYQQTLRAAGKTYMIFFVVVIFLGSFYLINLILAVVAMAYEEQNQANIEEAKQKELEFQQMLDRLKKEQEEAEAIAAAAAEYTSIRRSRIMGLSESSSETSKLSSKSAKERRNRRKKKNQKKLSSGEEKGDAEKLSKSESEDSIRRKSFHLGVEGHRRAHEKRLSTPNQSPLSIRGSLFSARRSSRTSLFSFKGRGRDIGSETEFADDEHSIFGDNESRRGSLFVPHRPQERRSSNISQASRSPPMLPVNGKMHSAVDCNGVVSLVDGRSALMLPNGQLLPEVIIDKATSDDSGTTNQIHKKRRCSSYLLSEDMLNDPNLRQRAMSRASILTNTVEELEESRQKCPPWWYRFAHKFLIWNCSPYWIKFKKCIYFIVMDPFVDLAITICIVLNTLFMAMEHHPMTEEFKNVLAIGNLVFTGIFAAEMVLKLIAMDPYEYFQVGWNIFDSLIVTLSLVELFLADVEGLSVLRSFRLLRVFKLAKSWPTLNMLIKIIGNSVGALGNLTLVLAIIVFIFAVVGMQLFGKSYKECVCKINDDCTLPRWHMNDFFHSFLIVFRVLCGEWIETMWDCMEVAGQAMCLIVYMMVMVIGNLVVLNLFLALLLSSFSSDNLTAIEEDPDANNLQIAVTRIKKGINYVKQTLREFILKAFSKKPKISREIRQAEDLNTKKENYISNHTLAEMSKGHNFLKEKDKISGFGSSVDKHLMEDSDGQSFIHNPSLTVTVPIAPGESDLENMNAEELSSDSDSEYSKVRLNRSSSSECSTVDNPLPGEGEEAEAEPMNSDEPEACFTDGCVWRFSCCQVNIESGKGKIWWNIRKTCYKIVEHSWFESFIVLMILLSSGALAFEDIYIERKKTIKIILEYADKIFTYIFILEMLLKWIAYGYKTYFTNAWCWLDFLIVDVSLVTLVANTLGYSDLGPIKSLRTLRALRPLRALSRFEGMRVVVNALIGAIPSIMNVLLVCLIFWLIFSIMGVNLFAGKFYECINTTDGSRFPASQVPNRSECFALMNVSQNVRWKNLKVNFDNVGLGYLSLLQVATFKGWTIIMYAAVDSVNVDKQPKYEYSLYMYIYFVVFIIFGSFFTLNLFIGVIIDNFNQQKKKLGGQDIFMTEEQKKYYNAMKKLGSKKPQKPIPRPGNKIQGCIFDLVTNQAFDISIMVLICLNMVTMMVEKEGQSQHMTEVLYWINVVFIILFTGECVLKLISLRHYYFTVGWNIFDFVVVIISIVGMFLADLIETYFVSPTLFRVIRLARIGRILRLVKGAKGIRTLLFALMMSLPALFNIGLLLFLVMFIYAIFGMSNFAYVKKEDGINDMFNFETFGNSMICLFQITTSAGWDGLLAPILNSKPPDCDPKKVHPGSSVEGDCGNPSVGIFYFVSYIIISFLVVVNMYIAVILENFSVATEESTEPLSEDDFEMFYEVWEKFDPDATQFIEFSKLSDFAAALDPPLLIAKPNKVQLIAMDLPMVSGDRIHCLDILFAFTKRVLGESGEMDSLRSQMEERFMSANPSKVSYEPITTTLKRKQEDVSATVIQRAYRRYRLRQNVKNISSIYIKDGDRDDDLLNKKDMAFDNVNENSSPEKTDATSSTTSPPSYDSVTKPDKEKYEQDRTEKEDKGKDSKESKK
testDescription: Inhibition of human Nav1.7 expressed in HEK293 cells incubated for 3 to 5 mins at -125 mV holding potential by electrophysiology assay
Type: cell-based
readoutType: IC50 (nM)

{"smilesData": "CC(C)COc1ncc(-c2ccc(C(=O)NS(C)(=O)=O)cc2)cc1Cl", "IC50, nM": 1190}
{"smilesData": "COc1cc(C(=O)NS(C)(=O)=O)ccc1-c1cnc(Sc2cccc(C)c2)c(Cl)c1", "IC50, nM": 160}
{"smilesData": "COc1cc(C(=O)NS(C)(=O)=O)ccc1-c1cnc(OC2CCC2)c(Cl)c1", "IC50, nM": 550}
{"smilesData": "CC(C)COc1ncc(Oc2nccc3cc(C(=O)NS(C)(=O)=O)ccc23)cc1Cl", "IC50, nM": 200}
{"smilesData": "CS(=O)(=O)NC(=O)c1ccc2c(-c3ccc(C(F)(F)F)c(Cl)c3)nccc2c1", "IC50, nM": 1550}

A: COc1cc(C(=O)NS(C)(=O)=O)c(F)cc1-c1cnc(OC2CCC2)c(Cl)c1
B: COc1cc(C(=O)NS(C)(=O)=O)c(F)cc1-c1cnc(OCC2(C)CC2)c(Cl)c1
Identify the entry with the smaller IC50: A or B . Write the label of whichever entry you select. B

a: COc1cc(C(=O)NS(C)(=O)=O)ccc1-c1cnc(OCc2ccc(Cl)cc2)c(Cl)c1
b: CC(C)COc1ncc(-c2ccc(C(=O)NS(C)(=O)=O)cc2F)cc1Cl
Which gives the smaller IC50 number: a or b ? Mark your answer with the label of the selected entry. a
